System: Raji
Experiment: Antiproliferative activity against human Raji cells assessed as inhibition of cell growth by MTT assay
Format: functional, cell-based
Measurement Label: EC50

Query :: Provide measured EC50 value, entry: "CC(C)Cn1c(=O)n(C)c(=O)c2nc(CCCCCO)c(COc3ccc4ccccc4c3)nc21"
Result :: < 50 nM

###

Molecular target: UniProtKB P53985
Sequence (P53985 whole entry): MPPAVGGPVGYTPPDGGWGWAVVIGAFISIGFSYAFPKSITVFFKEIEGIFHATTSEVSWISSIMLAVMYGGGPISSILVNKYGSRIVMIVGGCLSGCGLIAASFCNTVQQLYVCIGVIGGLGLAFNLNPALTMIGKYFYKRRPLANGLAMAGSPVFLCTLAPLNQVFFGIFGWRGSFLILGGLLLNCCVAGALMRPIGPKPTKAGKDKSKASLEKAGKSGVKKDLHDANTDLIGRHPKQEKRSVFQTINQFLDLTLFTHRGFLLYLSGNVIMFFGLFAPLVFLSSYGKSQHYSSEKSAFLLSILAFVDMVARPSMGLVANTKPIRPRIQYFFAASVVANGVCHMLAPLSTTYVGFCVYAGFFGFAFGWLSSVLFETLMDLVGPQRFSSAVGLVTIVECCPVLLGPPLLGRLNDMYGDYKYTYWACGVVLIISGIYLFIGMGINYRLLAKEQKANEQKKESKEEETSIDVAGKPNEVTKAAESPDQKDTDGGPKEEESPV
Assay: Inhibition of MCT1 (unknown origin)
Measurement Label: IC50 (µM)
Unit µM implied. Number only.

Query :: Report IC50, nothing else, for this compound: N#C/C(=C\c1ccc(O)cc1)C(=O)O [alpha-CYANO-4-HYDROXYCINNAMIC ACID]
Result :: 100
